system: CD2F1 mice, L1210 leukemia ip, survival T/C; experiment: NCI In Vivo Anticancer Drug Screen. Data for tumor model L1210 Leukemia (intraperitoneal) in CD2F1 (CDF1) mice; details: endpoint: mean survival time; dose: 75.0 mg/kg/injection; schedule: Q01DX001 (ip); vehicle: other; higher = longer survival
Toxic doses and inconclusive results are not listed.
Quick reference for T/C among some molecules

c1ccc2sc(NN=c3c4ccccc4sc4ccccc34)nc2c1	107 % of control

Output measured T/C for this item: `O=C1CSC(=S)N1/N=C/c1cc(Cl)cc(Cl)c1O`
90 % of control

Output measured T/C for this item: O=C(O)C1OC(C(=O)O)C(C(=O)O)C1C(=O)O (stereo unspecified)
100 % of control

Output measured T/C for this item: `CC(=O)c1ccc(Oc2ccc(/C(C)=N\N=C(N)N)cc2)cc1`
100 % of control

Output measured T/C for this item: `C=CCOP(=O)(OCC=C)C(Cl)(Cl)Cl`
109 % of control

Output measured T/C for this item: `CCOC(=O)c1ccc(N(CCO)CCO)cc1`
94 % of control

###

tested on: CD2F1 mice, L1210 leukemia ip, survival T/C; test: NCI In Vivo Anticancer Drug Screen. Data for tumor model L1210 Leukemia (intraperitoneal) in CD2F1 (CDF1) mice; details: endpoint: mean survival time; dose: 10.0 mg/kg/injection; schedule: Q04DX003 (ip); vehicle: saline with Tween-80; higher = longer survival
Inconclusive results and toxic doses are left out.
Endpoint Name: T/C

Study these solved cases before continuing.
COC(=O)[C@H]1[C@H]2C[C@@H]3c4[nH]c5cc(OC)ccc5c4CCN3C[C@H]2C[C@@H](OC(=O)/C=C/c2cc(OC)c(OC)c(OC)c2)[C@@H]1OC	101 % of control
COC1=C(N=[N+]=[N-])C(=O)C(OC)=C(N=[N+]=[N-])C1=O	95 % of control
C[CH2][Pb]([CH2]C)([CH2]C)[O]C(=O)C=C1CCCC1	92 % of control

Please look at the following compound next.
Output measured T/C for this item: `N#C[S-].N#C[S-].[NH-]CC[NH-].[Pt+4]`
97 % of control

###

Quick reference for T/C among some compounds
system: CD2F1 mice, L1210 leukemia ip, survival T/C; experiment: NCI In Vivo Anticancer Drug Screen. Data for tumor model L1210 Leukemia (intraperitoneal) in CD2F1 (CDF1) mice; conditions: endpoint: mean survival time; dose: 100.0 mg/kg/injection; schedule: Q01DX009 (ip); vehicle: saline with Tween-80; higher = longer survival
Toxic doses and inconclusive results are not listed.

Study these solved cases before continuing.
C[N+](C)(C)CC(O)c1ccccc1 (stereo not drawn)	105 % of control
COc1cc(OC)c(NC(=O)Nc2cccc(SC)c2)cc1Cl	88 % of control
CCCC(C)C/C(C)=C/C(C)(C)C(CC(=O)N1CCOCC1)C(=O)O (stereo not drawn)	93 % of control
Cc1ccc(CCl)cc1	92 % of control

Output measured T/C for this item: C/C(=C/C(C)(C)C)C1CCCCC1C (stereo not drawn)
100 % of control

Output measured T/C for this item: `CC(=O)CCC(=O)OCc1ccccc1`
108 % of control

###

Quick reference for T/C among some compounds
test system: CD2F1 mice, L1210 leukemia ip, survival T/C; test: NCI In Vivo Anticancer Drug Screen. Data for tumor model L1210 Leukemia (intraperitoneal) in CD2F1 (CDF1) mice; settings: endpoint: mean survival time; dose: 50.0 mg/kg/injection; schedule: Q01DX009 (ip); vehicle: Klucel (hydroxypropylcellulose) (HPC); higher = longer survival
Toxic doses and inconclusive results are not listed.

ClC1CCCC[N-]1.ClC1CCCC[N-]1.[Cl][Pt+2][Cl] (stereo unspecified)	95 % of control

Output measured T/C for this item: `Nc1nc(N)c2cc(CCc3ccccc3)ccc2n1`
106 % of control

Output measured T/C for this item: `C[Si](C)(C)OSc1ccccc1[N+](=O)[O-]`
100 % of control

Output measured T/C for this item: `Cc1cc(OCC(=O)O)ccc1Cl`
100 % of control

Output measured T/C for this item: `CCOC(=O)C(=Cc1ccc(C=C(C(=O)OCC)C(=O)OCC)cc1)C(=O)OCC`
95 % of control

Output measured T/C for this item: `Cc1ccc(S(=O)(=O)N/N=C(\C(=O)O)c2ccccc2)cc1`
96 % of control

###

system: CD2F1 mice, L1210 leukemia ip, survival T/C; experiment: NCI In Vivo Anticancer Drug Screen. Data for tumor model L1210 Leukemia (intraperitoneal) in CD2F1 (CDF1) mice; conditions: endpoint: mean survival time; dose: 400.0 mg/kg/injection; schedule: Q01DX009 (ip); vehicle: saline with Tween-80; higher = longer survival
Toxic doses and inconclusive results are not listed.
Quick reference for T/C among some compounds

CCOC(=O)c1cnc(SC)nc1NCc1ccc(Cl)cc1	97 % of control
Cc1cccc(-c2cc(Cl)c3cc(S(=O)(=O)F)ccc3n2)c1	100 % of control

Output measured T/C for this item: `O=c1cc[nH]cc1`
96 % of control

Output measured T/C for this item: `CC1=C(CNc2ncnc3nc[nH]c23)CC=CC1`
88 % of control

Output measured T/C for this item: `O=C(O)CCn1c(=O)[nH]c(=O)n(CCC(=O)O)c1=O`
97 % of control

Output measured T/C for this item: COc1ccc(C(C#N)Nc2ccccc2)cc1 (stereo not drawn)
103 % of control

Output measured T/C for this item: `CCCCCCCCCCCC1=NC(CO)(CO)CO1`
93 % of control

Output measured T/C for this item: `CC(C)OC(=O)Nc1cc(F)cc(C(F)(F)F)c1F`
97 % of control

Output measured T/C for this item: `Clc1ccc(-c2cc(-c3ccc(Cl)cc3)cc(-c3ccc(Cl)cc3)c2)cc1`
105 % of control

Output measured T/C for this item: `O=Cc1ccc(/C=C2\C=Cc3ccccc32)cc1`
103 % of control

Output measured T/C for this item: `O=CNNC=O`
97 % of control

###

system: CD2F1 mice, L1210 leukemia ip, survival T/C; experiment: NCI In Vivo Anticancer Drug Screen. Data for tumor model L1210 Leukemia (intraperitoneal) in CD2F1 (CDF1) mice; settings: endpoint: mean survival time; dose: 400.0 mg/kg/injection; schedule: Q01DX001 (ip); vehicle: saline with Tween-80; higher = longer survival
Inconclusive results and toxic doses are left out.
Quick reference for T/C among some compounds

Cc1ccc(S/C=C/C(=O)Nc2ccccc2)cc1	94 % of control
O=C(Cc1ccccc1)C(O)c1ccccc1 (stereo unspecified)	87 % of control
N#C/C(=C/c1ccc(Cl)cc1)C(N)=O	101 % of control
CC(O)c1cc2ccccc2n1C (stereo unspecified)	101 % of control

Output measured T/C for this item: `COC(=O)/N=C(/NC(=O)OC)SC`
98 % of control

Output measured T/C for this item: `CNC(=O)Oc1cccc(NC(=O)OCCC(C)C)c1`
96 % of control

Output measured T/C for this item: BrC1(Br)C2COCOCC21 (stereo unspecified)
94 % of control

###

test system: CD2F1 mice, L1210 leukemia ip, survival T/C; experiment: NCI In Vivo Anticancer Drug Screen. Data for tumor model L1210 Leukemia (intraperitoneal) in CD2F1 (CDF1) mice; details: endpoint: mean survival time; dose: 25.0 mg/kg/injection; schedule: Q01DX009 (ip); vehicle: water; higher = longer survival
Toxic doses and inconclusive results are not listed.
Endpoint Name: T/C

COc1ccc(/C=C(\C)[N+](=O)[O-])cc1OC	93 % of control
O=C(NCCCl)NC1C(O)OC(CO)C(O)C1O (configuration not stated)	107 % of control
CCN(CC)CCCC(C)NCCCCNC(C)CCCN(CC)CC (configuration not stated)	92 % of control
Cc1ccc(C(=O)N/N=C/C(=O)O)cc1	102 % of control
O/N=C/c1cccc[n+]1Cc1ccccc1	100 % of control

Output measured T/C for this item: `COc1ccc(-c2nc3c(N)nc(N)nc3nc2N)cc1OC`
103 % of control

Output measured T/C for this item: N#CC1CCCC[N-]1.[NH-]CC[N-]CC[NH-].[Pt+4] (configuration not stated)
95 % of control

###

system: CD2F1 mice, L1210 leukemia ip, survival T/C; test: NCI In Vivo Anticancer Drug Screen. Data for tumor model L1210 Leukemia (intraperitoneal) in CD2F1 (CDF1) mice; details: endpoint: mean survival time; dose: 100.0 mg/kg/injection; schedule: Q04DX003 (ip); vehicle: saline; higher = longer survival
Toxic doses and inconclusive results are not listed.
Endpoint Name: T/C

Study these solved cases before continuing.
Cc1cccc[n+]1CCCS(=O)(=O)[O-]	104 % of control
CNNCCCC(=O)NC(C)C	110 % of control
CC(N)(CO)C(=O)O (stereo not drawn)	108 % of control
O=c1cc[nH]cc1	103 % of control
O=C(Cl)CCc1ccnc2ccccc12	95 % of control
NC(CSS(=O)(=O)O)=NCCSS(=O)(=O)O	97 % of control
CCN(CCNc1ccc(C)c2sc3cc(Cl)ccc3c(=O)c12)CC(C)O (stereo not drawn)	94 % of control

Please look at the following compound next.
Output measured T/C for this item: `Cc1ccc([P+](=O)O)cc1Cl`
102 % of control
